This collection of values is drawn from ChEMBL document CHEMBL4321800.

For each record, write down the corresponding Activity.
- EXPERIMENTAL_TARGET: GATA4/NKX2-5 (Mus musculus) (UniProt Q08369+P42582)
- TEST_SUMMARY: Inhibition of mouse GATA4/mouse NKX2-5 protein-protein interaction expressed in Chlorocebus aethiops COS1 cells harboring 3xHA reporter gene assessed as transcriptional synergy at 10 uM after 24 hrs by luciferase reporter gene assay relative to control
- Assay type: cell-based
- Design: scale not given: the % may be the effect or the level left
Enter your answer as a number in %; do not include the unit.

Input line: Name the recorded Activity of the compound listed here: Cc1onc(-c2ccccc2)c1COc1ccc(C(=O)OCCC#N)cc1
Output line: 26

Input line: Please look at this compound and report its Activity: CCN(CC)c1ccc(NC(=O)c2cnsc2)cc1
Output line: 27

Input line: Output measured Activity for this item: CCN(c1ccc(NC(=O)c2c(C)noc2-c2ccccc2)cc1)C(C)C
Output line: 25

Input line: Report Activity, nothing else, for this compound: CC(=O)N(Cc1ccc(N(C)C)cc1)c1c(-c2ccccc2)noc1C
Output line: 28

Input line: For the compound CCN(CC)c1ccc(NC(=O)c2csc([N+](=O)[O-])c2)cc1 , give its reported Activity.
Output line: 25

Input line: Consider the compound CCN(c1ccc(NC(=O)c2c(C)noc2-c2snnc2C)cc1)C(C)C and give its recorded Activity.
Output line: 19

Input line: Tell me measured Activity for CCC(=O)N(Cc1ccc(N(CC)CC)cc1)c1c(-c2ccccc2)noc1C please.
Output line: 22

Input line: Look up Activity of CCN(c1ccc(NC(=O)c2cnsc2)cc1)C(C)C and report it.
Output line: 12

Input line: Provide only the value of recorded Activity for CCN(CC)c1ccc(NC(=O)c2c(C)noc2-c2ccccc2)cc1
Output line: 29

Input line: Specify measured Activity for CCN(CC)c1ccc(NC(=O)c2c(C)noc2-c2snnc2C)cc1 .
Output line: 24

====

- EXPERIMENTAL_TARGET: GATA4/NKX2-5 (Mus musculus) (UniProt Q08369+P42582)
- TEST_SUMMARY: Modulation of mouse GATA4/mouse NKX2-5 protein-protein interaction expressed in Chlorocebus aethiops COS1 cells harboring 3xHA reporter gene assessed as transcriptional synergy at 10 uM after 24 hrs by luciferase reporter gene assay relative to control
- Assay type: cell-based
Provide the reported Activity of each item.
Remember to quote the unit after the number.

Input line: Please supply the value of reported Activity for the item CCN(CC)c1ccc(NC(=O)c2c[nH]nc2-n2cnnn2)cc1
Output line: 110%

Input line: Retrieve Activity measured for CCN(CC)c1ccc(NC(=O)c2c(-c3ccccc3)nnn2C)cc1 and print it.
Output line: 84%

Input line: Identify Activity associated with the compound Cc1cc(NC(=O)c2c(-c3ccccc3)noc2C)ccc1C(C)C
Output line: 93%

Input line: State its Activity for this compound: Cc1onc(-c2ccccc2)c1C(=O)Nc1ccc(C(=O)OCCN(C)C)cc1
Output line: 110%

Input line: Tell me Activity reported for CCN(CC)c1ccc(NC(=O)c2c(-c3ccc(-c4ccc(F)cc4)cc3)noc2C)cc1
Output line: 110%

Input line: Give the value of Activity reported for the following: Cc1onc(-c2ccccc2)c1C(=O)Nc1ccc(C#C[Si](C)(C)C)cc1
Output line: 69%

Input line: Name the recorded Activity of the item CCN(CC)c1ccc(N(C)C(=O)c2c(-c3ccccc3)noc2C)cc1 in your answer.
Output line: 97%

Input line: Consider the compound CCN(CC)c1ccc(NC(=O)c2c(-c3c(Cl)ccc([N+](=O)[O-])c3Cl)noc2C)cc1 and give its recorded Activity.
Output line: 66%

Input line: Name the recorded Activity of the compound listed here: Cc1onc(-c2ccccc2)c1C(=O)Nc1ccc2c(c1)C(=O)CC2
Output line: 79%

Input line: Complete the entry with Activity for CCN(CC)c1ccc(NC(=O)c2c(-c3ccccc3Cl)noc2C)cc1
Output line: 88%

====

Would you kindly list Activity for each of these compounds?
- EXPERIMENTAL_TARGET: Transcription factor GATA-4 (Mus musculus) (UniProt Q08369)
- Sequence (Q08369 whole entry): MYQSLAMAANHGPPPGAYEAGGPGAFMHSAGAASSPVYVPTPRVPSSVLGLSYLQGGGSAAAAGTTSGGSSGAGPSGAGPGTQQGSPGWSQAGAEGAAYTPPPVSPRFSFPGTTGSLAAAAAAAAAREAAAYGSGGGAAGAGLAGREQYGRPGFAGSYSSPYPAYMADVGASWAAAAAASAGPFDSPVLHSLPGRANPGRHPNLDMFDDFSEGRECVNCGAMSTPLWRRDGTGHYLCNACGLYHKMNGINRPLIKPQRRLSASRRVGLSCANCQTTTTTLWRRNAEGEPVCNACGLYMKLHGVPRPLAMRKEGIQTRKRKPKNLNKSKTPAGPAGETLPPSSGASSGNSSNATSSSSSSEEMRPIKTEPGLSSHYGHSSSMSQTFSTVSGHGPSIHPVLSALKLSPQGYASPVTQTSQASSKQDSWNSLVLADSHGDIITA
- TEST_SUMMARY: Inhibition of mouse GATA4 expressed in Chlorocebus aethiops COS1 cells harboring NP-112 reporter gene assessed as BNP promoter-driven transcriptional activity at 10 uM after 24 hrs by luciferase reporter gene assay relative to control
- Type: cell-based
- Parameters: scale not given: the % may be the effect or the level left

Input line: Using known records, supply Activity for CCC(=O)N(Cc1ccc(N(CC)CC)cc1)c1c(-c2ccccc2)noc1C
Output line: 43%

Input line: Determine its reported Activity: Cc1onc(-c2ccccc2)c1COc1ccc(C(=O)OCCC#N)cc1
Output line: 41%

Input line: Quote Activity reported for CC(=O)N(Cc1ccc(N(C)C)cc1)c1c(-c2ccccc2)noc1C please.
Output line: 47%

Input line: Give Activity for the following compound: CCN(c1ccc(NC(=O)c2cnsc2)cc1)C(C)C
Output line: 20%

Input line: Retrieve Activity measured for CC(=O)COC(=O)c1ccc(OCc2c(-c3ccccc3)noc2C)cc1 and print it.
Output line: 44%

Input line: Assign Activity to the following record: CCN(CC)c1ccc(NC(=O)c2csc([N+](=O)[O-])c2)cc1
Output line: 23%

====

- EXPERIMENTAL_TARGET: UniProtKB P42582
- Sequence (P42582 whole entry): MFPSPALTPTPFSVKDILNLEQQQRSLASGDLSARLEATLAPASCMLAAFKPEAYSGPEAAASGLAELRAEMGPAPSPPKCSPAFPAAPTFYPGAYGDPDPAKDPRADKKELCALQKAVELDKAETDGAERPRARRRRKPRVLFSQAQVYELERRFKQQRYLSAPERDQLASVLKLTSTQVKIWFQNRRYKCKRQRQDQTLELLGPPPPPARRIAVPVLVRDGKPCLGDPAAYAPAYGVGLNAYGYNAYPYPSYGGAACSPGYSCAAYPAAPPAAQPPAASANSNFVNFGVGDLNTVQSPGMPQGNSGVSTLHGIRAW
- TEST_SUMMARY: Inhibition of mouse NKX2-5 expressed in Chlorocebus aethiops COS1 cells harboring 3xHA reporter gene assessed as protein-induced transcriptional activity at 10 uM after 24 hrs by luciferase reporter gene assay relative to control
- Type: cell-based
- Parameters: scale not given: the % may be the effect or the level left
# cutoff 20% applies to Activity; >= gives true, < gives false

Input line: Is it the case that CCN(CC)c1ccc(NC(=O)c2csc([N+](=O)[O-])c2)cc1 has Activity reaching or exceeding 20%?
Output line: true

Input line: Is the recorded value of Activity equal to or greater than 20% for this compound? CCN(c1ccc(NC(=O)c2cnsc2)cc1)C(C)C
Output line: false

Input line: Reported Activity reaches at least 20% for CCN(CC)c1ccc(NC(=O)c2cnsc2)cc1 ?
Output line: false

Input line: Hello, I need to know if CCN(CC)c1ccc(NC(=O)c2c(C)noc2-c2snnc2C)cc1 has measured Activity not below 20%. Thanks!
Output line: true

Input line: Exam item: decide whether the reported Activity for Cc1onc(-c2ccccc2)c1COc1ccc(C(=O)OCCC#N)cc1 is at least 20%.
Output line: true

====

Consider the following molecules; for each one, report its Activity.
- EXPERIMENTAL_TARGET: GATA4/NKX2-5 (Mus musculus) (UniProt Q08369+P42582)
- TEST_SUMMARY: Modulation of mouse GATA4/mouse NKX2-5 protein-protein interaction expressed in Chlorocebus aethiops COS1 cells harboring 3xHA reporter gene assessed as transcriptional synergy at 10 uM after 24 hrs by luciferase reporter gene assay relative to control
- Assay type: cell-based
Express your answer in %, writing the number without its unit.

Input line: Report Activity, nothing else, for this molecule: Cc1onc(-c2ccccc2)c1C(=O)Nc1ccc(OCCN2CCOCC2)cc1
Output line: 97

Input line: Read the entry CCN(CC)c1ccc(NC(=O)c2c(-n3cccc3)sc(C)c2C)cc1 and write its reported Activity.
Output line: 79

Input line: Give a short answer stating reported Activity for CCN(CC)c1ccc(NC(=O)c2c(-c3ccoc3)noc2C)cc1 .
Output line: 110

Input line: Quick one: give measured Activity for CCN(CC)c1ccc(NC(=O)c2csc(C)c2-c2ccccc2)cc1
Output line: 33

Input line: Write down Activity measured for item CCN(CC)c1ccc(/N=C(\SC)c2c(-c3ccccc3)noc2C)cc1
Output line: 86

Input line: Input CCN(CCO)c1ccc(NC(=O)c2c(-c3ccccc3)noc2C)cc1 , output reported Activity.
Output line: 67

Input line: In one line, give reported Activity of the entry Cc1onc(-c2ccccc2)c1C(=O)Nc1ccc(-c2ccccc2)cc1 .
Output line: 110

Input line: Supply measured Activity of Cc1onc(-c2ccccc2)c1C(=O)Nc1ccc(C(=O)OCCCCC#N)cc1 in your reply.
Output line: 90

Input line: Name the recorded Activity of the molecule listed here: CCN(CC)c1ccc(NC(=O)c2c(-c3cccc([N+](=O)[O-])c3)noc2C)cc1
Output line: 65

Input line: For CCN(CC)c1ccc(NC(=O)c2ccsc2)cc1 , write its Activity.
Output line: 110

Input line: State, in one line, measured Activity of CCN(CC)c1ccc(NC(=O)c2cc(C)oc2-c2cc(C)on2)cc1
Output line: 100

Input line: Return reported Activity. Input molecule: CCN(CC)c1ccc(NC(=O)c2c(-c3ccc([N+](=O)[O-])cc3)noc2C)cc1
Output line: 100

Input line: Answer with the recorded Activity of CCN(c1ccc(NC(=O)c2c(-c3ccccc3)noc2C)cc1[N+](=O)[O-])C(C)C only.
Output line: 75

Input line: Determine from records and report Activity for CCN(CC)c1ccc(NC(=O)c2c(-c3coc(C)n3)noc2C)cc1
Output line: 100

Input line: Let me know recorded Activity for CCN(CC)c1ccc(NC(=O)c2cnn(C)c2-c2ccccc2)cc1 , thanks.
Output line: 62

Input line: Determine its reported Activity: CCN(CC)c1ccc(NC(=O)c2c(-c3ccccc3)nnn2CCOC)cc1
Output line: 91

Input line: Quickly give me recorded Activity for Cc1onc(-c2ccccc2)c1C(=O)Nc1nc(C(C)(C)C)cs1
Output line: 110

Input line: Answer with the recorded Activity of CCN(CC)c1ccc(NC(=O)c2c(-c3ccc(Br)cc3)noc2C)cc1 only.
Output line: 70

Input line: Determine from records and report Activity for CCN(CC)c1ccc(NC(=O)c2ccnc(C(F)(F)F)c2)cc1
Output line: 84

Input line: Name the recorded Activity of the molecule listed here: CCC(=O)c1ccc(OCc2c(-c3ccccc3)noc2C)cc1
Output line: 76

Input line: Annotate the molecule Cc1onc(-c2ccccc2)c1C(=O)Nc1ccc(N(C)C)cc1 with its measured Activity.
Output line: 99

Input line: Quick one: give measured Activity for CCN(CC)c1ccc(NC(=O)c2nn(-c3ccccc3)nc2C)cc1
Output line: 100

Input line: Please give measured Activity of the following entry: Cc1onc(-c2ccccc2)c1C(=O)Nc1ccc2oc(-c3ccccc3)cc(=O)c2c1
Output line: 31

Input line: Answer with the recorded Activity of CCN(CC)c1ccc(N(Cc2ccccc2)C(=O)c2c(-c3ccccc3)noc2C)cc1 only.
Output line: 66

Input line: Specify reported Activity for the molecule shown: CCN(c1ccc(NC(=O)c2c(-c3ccccc3)noc2C)cc1)C(C)C
Output line: 41

Input line: Please report Activity for the following molecule: CCN(CC)c1ccc(NC(=O)c2cnc(SC)n2-c2ccc(F)cc2)cc1
Output line: 52

Input line: # return recorded Activity for entry CCN(CC)c1ccc(NC(=O)c2ncoc2-c2ccccc2)cc1
Output line: 110

Input line: Return reported Activity. Input molecule: Cc1onc(-c2ccccc2)c1COc1ccc(C(=O)OCC(C)C)cc1
Output line: 99

Input line: Please report Activity for the following molecule: Cc1onc(-c2ccccc2)c1COc1ccc(C(=O)OCc2ccoc2)cc1
Output line: 100

Input line: Let me know recorded Activity for CCN(CC)c1ccc(NC(=O)c2c(SC)nsc2SC)cc1 , thanks.
Output line: 110

Input line: Recall and state the measured Activity for CCN(CC)C(=O)c1ccc(OCc2c(-c3ccccc3)noc2C)cc1 .
Output line: 92

Input line: Provide Activity value for the following molecule: CCN(CC)c1ccc(NC(=S)c2c(-c3ccccc3)noc2C)cc1
Output line: 99

Input line: Name the recorded Activity of the molecule listed here: CCN(CC)c1ccc(N(Cc2c(-c3ccccc3)noc2C)C(C)=O)cc1
Output line: 80

Input line: Hello, please tell me recorded Activity for this one: Cc1onc(-c2ccccc2)c1C(=O)Nc1ccc(C(=O)OCCCC#N)cc1
Output line: 98

Input line: Provide Activity value for the following molecule: CCC(O)c1ccc(OCc2c(-c3ccccc3)noc2C)cc1 (racemic)
Output line: 87

Input line: Provide Activity value for the following molecule: CCN(CC)c1ccc(NS(=O)(=O)c2c(-c3ccccc3)noc2C)cc1
Output line: 98

Input line: Please report Activity for the following molecule: CCN(CC)c1ccc(NC(=O)c2cn(C)cc2-c2cc(C)on2)cc1
Output line: 110

Input line: In one line, give reported Activity of the entry CCN(CC)c1ccc(NC(=O)c2c(C)noc2-c2cc(C)on2)cc1 .
Output line: 78

Input line: Check the records and state Activity for CCN(CC)c1ccc(/C=N/c2c(-c3ccccc3)noc2C)cc1
Output line: 96

Input line: Supply measured Activity of CCN(CC)c1ccc(NC(=O)c2cnoc2-c2ccccc2)cc1 in your reply.
Output line: 47

Input line: Look up and state reported Activity for CCN(CC)c1ccc(NC(=O)c2c(-c3ccccc3)nnc3ccccc23)cc1
Output line: 87

Input line: Determine from records and report Activity for CCc1noc(C)c1C(=O)Nc1ccc(N(CC)CC)cc1
Output line: 100

Input line: Supply Activity value. Item: CCN(CC)c1ccc(/N=C/c2c(-c3ccccc3)noc2C)cc1
Output line: 100

Input line: // Input: CCN(CC)c1ccc(NC(=O)c2c(-c3cc(Br)cs3)noc2C)cc1 . Output its Activity only.
Output line: 89
